Reported pIC50 is given for each of the following molecules.
- tgt: N-terminal His6-tagged recombinant full-length human Lck (Homo sapiens, UniProt P06239)
- Construct: N-terminal His6-tagged recombinant full-length human Lck; His6 (N)
- Sequence (P06239 whole entry): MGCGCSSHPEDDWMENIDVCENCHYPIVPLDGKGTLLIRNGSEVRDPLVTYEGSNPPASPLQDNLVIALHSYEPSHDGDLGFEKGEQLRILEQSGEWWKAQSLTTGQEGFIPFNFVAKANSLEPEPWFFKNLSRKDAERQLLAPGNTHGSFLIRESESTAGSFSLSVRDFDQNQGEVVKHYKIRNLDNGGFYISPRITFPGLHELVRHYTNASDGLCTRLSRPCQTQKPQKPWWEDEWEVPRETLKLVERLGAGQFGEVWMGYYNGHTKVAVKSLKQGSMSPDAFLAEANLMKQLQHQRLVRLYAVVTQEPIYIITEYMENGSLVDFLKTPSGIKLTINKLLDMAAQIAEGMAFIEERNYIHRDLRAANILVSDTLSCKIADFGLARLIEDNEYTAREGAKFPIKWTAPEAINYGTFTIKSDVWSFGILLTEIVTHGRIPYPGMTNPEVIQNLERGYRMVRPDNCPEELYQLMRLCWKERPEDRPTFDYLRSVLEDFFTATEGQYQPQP
- experiment: Lck IMAP assay
- conditionSet: ATP 6 μM (KM,ATP), enzyme pre-incubated with compounds for 60 minutes, values given as bins
- Source text: Inhibition of kinase activity can be measured using the Immobilized Metal Assay for Phosphochemicals (IMAP) assay. IMAP is a homogeneous fluorescence polarization (FP) assay based on affinity capture of phosphorylated peptide substrates. […] Enzyme used was N-terminal His6-tagged recombinant full-length human Lck from Millipore. […] Finally, the FP signal was read on an Envision Multilabel reader (Perkin Elmer). […]
pIC50: −log10 of the molar value.

As a guide, the following entries are already answered.
COc1cc(-c2nc(N3CCN(C4CCN(C(C)=O)CC4)CC3)n3ccnc(C)c23)ccc1NC(=O)c1cc2c(OC)cccc2n1C    ≥ 8.00
CCC[C@H](C)OC(=O)Nc1ccc(-c2nc(C3CCC(N4CCN(C)CC4)C3)n3ccnc(C)c23)cc1OC (mixture of isomers)    ≥ 8.00
CCC[C@H](C)OC(=O)Nc1ccc(-c2nc([C@H]3CC[C@H](NCCOC)CC3)n3ccnc(C)c23)cc1OC    ≥ 8.00
COc1cc(-c2nc([C@H]3CC[C@H](N4CC(F)(F)C4)CC3)n3ccnc(C)c23)ccc1NC(=O)c1cc2c(OC)cccc2n1C    ≥ 8.00
COc1cc(-c2nc(C3CCN(C4CCN(C(C)=O)CC4)CC3)n3ccnc(C)c23)ccc1NC(=O)c1cc2c(OC)cccc2n1C    ≥ 8.00
COc1cc(-c2nc(N3CCOCC3)n3ccnc(C)c23)ccc1NC(=O)c1cc2ccccc2n1C    ≥ 8.00
COc1cc(-c2nc(C3CCN(C(=O)CN(C)C)CC3)n3ccnc(C)c23)ccc1NC(=O)c1cc2ccccc2n1C    ≥ 8.00
COc1cc(-c2nc(C3CCOCC3)n3ccnc(C)c23)c(F)cc1NC(=O)OC(C)CCCO (stereo not drawn)    6.00 to 7.00
COc1cc(-c2nc([C@H]3CC[C@H](N4CCN(C)CC4)CC3)n3ccnc(C)c23)ccc1NC(=O)c1cc2ccccc2n1C [Example 33b, 2,2,2-trifluoroacetate]    ≥ 8.00
CCC[C@H](C)OC(=O)Nc1ccc(-c2nc([C@H]3CC[C@H](N(CCOC)C(C)=O)CC3)n3ccnc(C)c23)cc1OC    ≥ 8.00

QUERY: Fill in: pIC50 of `COc1cc(-c2nc(N3CCn4c(nnc4C(F)(F)F)C3)n3ccnc(C)c23)ccc1NC(=O)c1cc2c(OC)cccc2n1C` is ___
RESULT: 7.00 to 8.00

QUERY: Fill in: pIC50 of COc1cc(-c2nc([C@H]3CC[C@H](N(C)C)CC3)n3ccnc(C)c23)ccc1NC(=O)c1cc2c(OC)cccc2n1C [Example 26b] is ___
RESULT: ≥ 8.00

---

Reported IC50 is given for each of the following compounds.
- tgt: N-terminal His6-tagged recombinant full-length human Lck (Homo sapiens)
- Construct: N-terminal His6-tagged recombinant full-length human Lck; His6 (N)
- experiment: Lck IMAP assay
- conditionSet: ATP 6 μM (KM,ATP), enzyme pre-incubated with compounds for 60 minutes, values given as bins

COc1cc(-c2nc([C@H]3CC[C@H](OC(C)=O)CC3)n3ccnc(C)c23)ccc1NC(=O)c1cc2c(OC)cccc2n1C    ≤ 10 nM

QUERY: Fill in: IC50 of `COc1cc(-c2nc(C3(C)COC3)n3ccnc(C)c23)ccc1NC(=O)c1cc2c(OC)cccc2n1C` is ___
RESULT: ≤ 10 nM

QUERY: Fill in: IC50 of COc1cc(-c2nc([C@H]3CC[C@H](N4CCN(C(C)=O)CC4)CC3)n3ccnc(C)c23)ccc1NC(=O)c1cc2ccccc2n1C [Example 33c] is ___
RESULT: ≤ 10 nM

---

- tgt: N-terminal His6-tagged recombinant full-length human Lck (Homo sapiens)
- Construct: N-terminal His6-tagged recombinant full-length human Lck; His6 (N)
- experiment: Lck IMAP assay
- conditionSet: ATP 6 μM (KM,ATP), enzyme pre-incubated with compounds for 60 minutes, values given as bins
valueType: IC50

COc1cc(-c2nc(C3CCOCC3)n3ccnc(C)c23)ccc1NC(=O)O[C@@H](C)CCO [Example 44]    10 to 100 nM
COC(=O)N1CCC(c2nc(-c3ccc(NC(=O)c4cc5c(OC)cccc5n4C)c(OC)c3)c3c(C)nccn23)CC1 [Example 22]    ≤ 10 nM
COc1cc(-c2nc([C@H]3CC[C@H](N4CCN(C)CC4)CC3)n3ccnc(C)c23)ccc1NC(=O)c1cc2cc(Cl)cnc2n1C [Example 67]    ≤ 10 nM
CCC[C@H](C)OC(=O)Nc1ccc(-c2nc(N3CCC3)n3ccnc(C)c23)cc1OC [Example 3]    10 to 100 nM
CCC[C@H](C)OC(=O)Nc1ccc(-c2nc([C@H]3CC[C@H](N4CCN(C)CC4)CC3)n3ccnc(C)c23)cc1OC [Example 33a]    ≤ 10 nM

QUERY: Fill in: IC50 of COc1cc(-c2nc([C@H]3CC[C@@H](N4CCN(C)CC4)CC3)n3ccnc(C)c23)ccc1NC(=O)c1cc2c(OC)cccc2n1C [Example 8] is ___
RESULT: ≤ 10 nM

QUERY: Fill in: IC50 of COc1cc(-c2nc([C@@H]3CCN(CC(=O)N(C)C)C3)n3ccnc(C)c23)ccc1NC(=O)c1cc2c(OC)cccc2n1C [Example 52] is ___
RESULT: 10 to 100 nM

---

- tgt: N-terminal His6-tagged recombinant full-length human Lck (Homo sapiens, UniProt P06239)
- Construct: N-terminal His6-tagged recombinant full-length human Lck; His6 (N)
- experiment: Lck IMAP assay
- conditionSet: ATP 6 μM (KM,ATP), enzyme pre-incubated with compounds for 60 minutes, values given as bins
Reported IC50 is given for each of the following compounds.

As a guide, the following entries are already answered.
COc1cc(-c2nc([C@H]3CC[C@H](OC(=O)NC4CCCC4)CC3)n3ccnc(C)c23)ccc1NC(=O)c1cc2c(OC)cccc2n1C [Example 51]    10 to 100 nM
COc1cc(-c2nc([C@H]3CC[C@H](N4CCN(C)CC4)CC3)n3ccnc(C)c23)ccc1NC(=O)c1cc(Cl)cn1C [Example 55]    ≤ 10 nM
COc1cc(-c2nc([C@H]3CC[C@@H](N4CC(F)(F)C4)CC3)n3ccnc(C)c23)ccc1NC(=O)c1cc2c(OC)cccc2n1C [Example 10]    ≤ 10 nM

QUERY: Fill in: IC50 of COc1cc(-c2nc([C@H]3CC[C@H](CNC(C)=O)CC3)n3ccnc(C)c23)ccc1NC(=O)c1cc2c(OC)cccc2n1C [Example 68] is ___
RESULT: ≤ 10 nM

QUERY: Fill in: IC50 of COc1cc(-c2nc([C@H]3CC[C@H](O)CC3)n3ccnc(C)c23)ccc1NC(=O)c1cc2c(OC)cccc2n1C [Example 6] is ___
RESULT: ≤ 10 nM

---

- tgt: N-terminal His6-tagged recombinant full-length human Lck (Homo sapiens, UniProt P06239)
- Construct: N-terminal His6-tagged recombinant full-length human Lck; His6 (N)
- experiment: Lck IMAP assay
- conditionSet: ATP 6 μM (KM,ATP), enzyme pre-incubated with compounds for 60 minutes, values given as bins
- From the text: Inhibition of kinase activity can be measured using the Immobilized Metal Assay for Phosphochemicals (IMAP) assay. IMAP is a homogeneous fluorescence polarization (FP) assay based on affinity capture of phosphorylated peptide substrates. […] Enzyme used was N-terminal His6-tagged recombinant full-length human Lck from Millipore. […] Finally, the FP signal was read on an Envision Multilabel reader (Perkin Elmer). […]
valueType: IC50

As a guide, the following entries are already answered.
COc1cc(-c2nc([C@H]3CC[C@H](NCC(F)F)CC3)n3ccnc(C)c23)ccc1NC(=O)c1cc2c(OC)cccc2n1C    ≤ 10 nM
COc1ccc2[nH]c(C(=O)Nc3ccc(-c4nc(C5CCOCC5)n5ccnc(C)c45)cc3OC)cc2n1    10 to 100 nM
COc1cc(-c2nc(C3CCN(C(=O)CN)CC3)n3ccnc(C)c23)ccc1NC(=O)c1cc2ccccc2n1C    ≤ 10 nM

Moving on to the next compound.
QUERY: Fill in: IC50 of `COc1cc(-c2nc(C3CCN(C)CC3)n3ccnc(C)c23)ccc1NC(=O)c1cc2ccccc2n1C` is ___
RESULT: ≤ 10 nM
